Molecular target: Protease (Norovirus Hu/GII.4-2002/WeertE022/2002/NL) (UniProt G1FEK8)
Sequence (G1FEK8 as listed by the source): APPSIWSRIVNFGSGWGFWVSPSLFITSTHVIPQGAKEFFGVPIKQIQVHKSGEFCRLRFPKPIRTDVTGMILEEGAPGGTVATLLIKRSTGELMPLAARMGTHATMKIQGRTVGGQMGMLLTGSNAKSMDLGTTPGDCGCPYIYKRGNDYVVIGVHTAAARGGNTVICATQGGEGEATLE
Experiment: Inhibition of Norovirus prototypic GII.4 3CL protease using HiLyte Fluor 488-labelled DFELQGPK as substrate incubated for 90 mins measured every mins for 20 mins by FRET assay
Details: Norovirus GII.4
observation-type: log10 IC90 (log10 of the value in µM)
// units: µM (pre-log); metric: IC90; scale: log10

The cases that follow already have their log10 IC90 on record.
CC(C)C[C@H](NC(=O)[C@H](Cc1cccc2ccccc12)NC(=O)OCc1ccccc1)C(=O)N[C@H](C=O)C[C@@H]1CCNC1=O	-0.69
CC(C)C[C@H](NC(=O)[C@H](Cc1cccc2ccccc12)NC(=O)OCc1ccccc1)C(=O)N[C@H](/C=C(\C#N)C(N)=O)C[C@@H]1CCCNC1=O	0.56
CC(C)C[C@H](NC(=O)[C@H](Cc1cccc2ccccc12)NC(=O)OCc1ccccc1)C(=O)N[C@@H](C[C@@H]1CCCNC1=O)C(O)S(=O)(=O)O (some centres not stated)	1.15

Fill in: log10 IC90 of CC(C)C[C@H](NC(=O)[C@H](Cc1cccc2ccccc12)NC(=O)OCc1ccccc1)C(=O)N[C@@H](C[C@@H]1CCCNC1=O)C(=O)C(F)(F)F is ___
1.15

How about this compound: CC(C)C[C@H](NC(=O)[C@H](Cc1cccc2ccccc12)NC(=O)OCc1ccccc1)C(=O)N[C@H](C=O)C[C@@H]1CCCNC1=O
0.08

Moving on to CC(C)C[C@H](NC(=O)[C@H](Cc1cccc2ccccc12)NC(=O)OCc1ccccc1)C(=O)N[C@H](CO)CCC(=O)N1CCC1
0.74

---

Test system: PBMC
Test: Cytotoxicity against human PBMC assessed as reduction in cell viability after 6 days by trypan blue exclusion assay
Assay type: cell-based
Conditions: 144 h
observation-type: CC50 (µM)
Give the value in µM but do not write µM after it.

The following compounds have reported results that may help.
CC(C)C[C@H](NC(=O)[C@H](Cc1cccc2ccccc12)NC(=O)OCc1ccccc1)C(=O)N[C@H](CCl)C[C@@H]1CCCNC1=O	75
CC(C)C[C@H](NC(=O)[C@H](Cc1cccc2ccccc12)NC(=O)OCc1ccccc1)C(=O)N[C@H](C=O)C[C@@H]1CCNC1=O	28.4
CC(C)C[C@H](NC(=O)[C@H](Cc1cccc2ccccc12)NC(=O)OCc1ccccc1)C(=O)N[C@H](CO)Cn1ccnn1	1.9

Now consider the entry below.
Name the reported CC50 value associated with the compound CC(C)C[C@H](NC(=O)[C@H](Cc1cccc2ccccc12)NC(=O)OCc1ccccc1)C(=O)N[C@H](CO)CCC(=O)N1CCC1
18.4

---

Molecular target: Protease (Norovirus Hu/GII.4-2002/WeertE022/2002/NL, UniProt G1FEK8)
Test: Inhibition of Norovirus prototypic GII.4 3CL protease using HiLyte Fluor 488-labelled DFELQGPK as substrate incubated for 90 mins measured every mins for 20 mins by FRET assay
Set-up: species or system Norovirus GII.4
pIC50: −log10 of the molar value.
observation-type: pIC50

Observe how each entry below is paired with its result.
CC(C)C[C@H](NC(=O)[C@H](Cc1cccc2ccccc12)NC(=O)OCc1ccccc1)C(=O)N[C@H](CO)Cn1ccnn1	< 5.00
CC(C)C[C@H](NC(=O)[C@H](Cc1cccc2ccccc12)NC(=O)OCc1ccccc1)C(=O)NC(/C=C/C=O)C[C@@H]1CCNC1=O (some centres undefined)	< 4.00
CC(C)C[C@H](NC(=O)[C@H](Cc1cccc2ccccc12)NC(=O)OCc1ccccc1)C(=O)N[C@H](CCl)C[C@@H]1CCCNC1=O	< 4.00

Could you now look at the following compound, please?
Reported pIC50 for Protease (Norovirus Hu/GII.4-2002/WeertE022/2002/NL, UniProt G1FEK8), given CC(C)C[C@H](NC(=O)[C@H](Cc1cccc2ccccc12)NC(=O)OCc1ccccc1)C(=O)N[C@H](CS)C[C@@H]1CCNC1=O ?
< 5.00
